Molecular target: rat MCH-1 (Rattus norvegicus, UniProt P97639)
Sequence (P97639 whole entry): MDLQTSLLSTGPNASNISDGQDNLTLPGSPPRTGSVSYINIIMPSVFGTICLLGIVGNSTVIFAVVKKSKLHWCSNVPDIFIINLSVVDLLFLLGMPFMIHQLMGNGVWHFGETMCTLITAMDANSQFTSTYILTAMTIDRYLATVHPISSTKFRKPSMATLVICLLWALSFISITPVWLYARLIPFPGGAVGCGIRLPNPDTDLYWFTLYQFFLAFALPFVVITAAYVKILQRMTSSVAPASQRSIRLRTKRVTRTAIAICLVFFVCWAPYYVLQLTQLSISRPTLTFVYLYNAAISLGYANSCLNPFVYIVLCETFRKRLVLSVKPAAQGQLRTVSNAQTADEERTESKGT
Test: Radioligand binding assay at cloned rat MCH1 receptor ([3H] Compound A)
Set-up: host or cells: Peak rapid 293 (Peakr293) cells, transient calcium phosphate transfection, membranes
Settings: cloned rat MCH1 receptor, membranes from Peakr293 cells, 0.08 nM [3H] Compound A; read-out: Ki (nM) rMCH1
Here the recorded Ki is given for each entry.
Answers without a unit are incomplete; give the number and then its unit.

Solved entries:
CCCCN(CCCC)c1ccc(CN2CCC(c3cccc(NC(=O)C(C)C)c3)CC2)cc1 :: 6.5 nM
CC(C)C(=O)Nc1ccccc1C1CCN(CCCC(c2ccc(F)cc2)c2ccc(F)cc2)CC1 :: 734 nM
CC(C)C(=O)Nc1cccc(C2CCN(CCC(Oc3ccc(C(F)(F)F)cc3)c3ccc(Cl)cc3)CC2)c1 (stereo not shown) :: 4.9 nM

Report Ki for COc1ccc(C(CCN2CCC(c3cccc(NC(=O)C(C)C)c3)CC2)Oc2ccc(F)cc2)cc1 (stereo not shown) tested on rat MCH-1 (Rattus norvegicus, UniProt P97639).
105 nM
